Reported 590 nm absorbance normalized to zero hour (substrate use), 8 hr values for a set of compounds
# System: NHBE cells
# assay protocol: Biolog metabolic array: substrate use by NHBE cells with or without CA09 infection
# Type: cell-based, human
# test settings: Virus (CA09-infected, MOI 1) NHBE cells, 8 hr
Could you keep your reply to the number by itself?

Solved cases below.
compound | system tested | obs value
OCC1OC(OC2C(CO)OC(OC3C(CO)OC(O)C(O)C3O)C(O)C2O)C(O)C(O)C1O (stereo not drawn) | NHBE cells | 6.78
OC[C@H]1O[C@H](O[C@H]2[C@H](O)[C@@H](O)[C@H](O)O[C@@H]2CO)[C@H](O)[C@@H](O)[C@@H]1O | NHBE cells | 7.01

For the next question, use this compound.
Considering NCCCC(=O)O , its 590 nm absorbance normalized to zero hour (substrate use), 8 hr with NHBE cells was recorded as 3.84
